The measurements presented in this section are drawn from paper PMC9482650.

pKd values for the binders below.
assayed_target: MAST2, Q6P0Q8
Sequence (Q6P0Q8 1099-1202): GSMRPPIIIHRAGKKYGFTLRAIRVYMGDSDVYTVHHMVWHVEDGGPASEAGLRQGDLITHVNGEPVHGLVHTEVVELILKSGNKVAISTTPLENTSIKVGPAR
procedure_summary: holdup assay
Design: key: below the threshold = too weak to quantify, mostly under pKd 3.1 to 4
conditions: plain residues with an end cap or a label only (N-terminal biotin on a linker: ado-ado)
experimental_endpoint: pKd

> print(dat)
                          binder  experimental.endpoint  reported.result
1     VRNLPESEEL [MYOZ3, Q8TDC0]                    pKd             4.74
2      SARSRLSSNL [HCN2, Q9UL51]                    pKd              5.4
3      TACCHSETVV [TGFA, P01135]                    pKd              5.1
4    MLSKQSESAI [FLVCR1, Q9Y5Y0]                    pKd             4.58
5    DDEDRLVIEI [ZNF831, Q5JPB2]                    pKd             4.08
6  RHGSCVETSL [TMEM151B, Q8IW70]                    pKd             5.64
7      QSLNRMEYIV [JAG1, P78504]                    pKd             4.07
